Test system: Pseudomonas aeruginosa
experimental.details: Antimicrobial activity against Pseudomonas aeruginosa 61 under iron-sufficient condition by CLSI protocol based broth microdilution method
Assay type: functional
measurement.type: MIC90 (µM)
Please respond with the number in µM and leave the unit unwritten.

{"smiles.text": "CC1(C)S[C@@H]2[C@H](NC(=O)[C@H](N)c3ccccc3)C(=O)N2[C@H]1C(=O)O", "MIC90 / µM": 0.52}
{"smiles.text": "CC1(C)S[C@@H]2[C@H](NC(=O)[C@H](NC(=O)CCC(=O)NC(CCCNC(=O)c3cccc(O)c3O)(CCCNC(=O)c3cccc(O)c3O)CCCNC(=O)c3cccc(O)c3O)c3ccc(O)cc3)C(=O)N2[C@H]1C(=O)O", "MIC90 / µM": 12.5}
{"smiles.text": "CC1(C)S[C@@H]2[C@H](NC(=O)[C@H](N)c3ccc(O)cc3)C(=O)N2[C@H]1C(=O)O", "MIC90 / µM": 0.46}

Now for the compound whose MIC90 we want.
Request: Please provide the recorded MIC90 for CC1(C)S[C@@H]2[C@H](NC(=O)[C@H](NC(=O)CCC(=O)NC(CCCNC(=O)c3cccc(O)c3O)(CCCNC(=O)c3cccc(O)c3O)CCCNC(=O)c3cccc(O)c3O)c3ccccc3)C(=O)N2[C@H]1C(=O)O , tested on Pseudomonas aeruginosa.
Response: 12.5
